Consider the following compounds; for each one, report its Toxicity.
- Tested on: Schistosoma mansoni
- Assay type: functional
- Parameters: scale not given here
Give bare numbers.

1) O=C(Nc1ccsc1C(=O)NC1CCCCC1)c1ccc(F)cc1 ... 2

Your task in this section: give Toxicity for each listed record.
1. CCOc1ccc(C2N(C)c3ccccc3N2C)cc1
2. CCOC(=O)C1=CN(C)C=C(C(=O)OCC)C1c1cc(Br)c(OCC)c(OC)c1

1. 2
2. 0

Give Toxicity for all compounds that follow.
1. O=C(NC1CCN(Cc2ccccc2)CC1)c1cc2nc(-c3ccc(Cl)s3)cc(C(F)(F)F)n2n1
2. c1ccc(Cn2c(N=Nc3c(Nc4ccccc4)ccc4ccccc34)nc3ccccc32)cc1

[0, 0]

----------
- Tested on: Schistosoma mansoni
- Assay type: functional
- Design: scale not given here
Give Toxicity for every item shown.

Record excerpt, results attached:
1. CCCCc1ccc(NS(=O)(=O)c2cc3c4c(c2)CCN4C(=O)CC3)cc1 ... 2
2. C=C(C)CCC(C)N1CCC(N2CCC(C(=O)NCCc3ccccc3)CC2)CC1 (stereo unspecified) ... 0
3. Cc1ccc(C2CC(C(F)(F)F)n3nc(C(=O)N4CCN(C(c5ccccc5)c5ccccc5)CC4)cc3N2)cc1 (stereo unspecified) ... 0
4. CCC(O)c1ccc(Br)cc1NC(=O)c1cccc(Cl)c1 (stereo unspecified) ... 0
5. CCOc1ccc(-c2nc(NC(=O)c3cccc(S(C)(=O)=O)c3)sc2C)cc1 ... 0
6. CC(=O)c1sc(NC(=O)Nc2ccc(C)cc2C)nc1C ... 0
7. COc1nc(Nc2ccc(C(C)C)cc2)nc(OC)n1 ... 0
8. CCCCNCC(O)(c1ccc(Cl)cc1)c1ccc(Cl)cc1 ... 0

Give Toxicity for each listed item.
1. Cc1cc(Nc2cccc(F)c2)nc(NCc2ccccc2)n1
2. CCOC(=O)C1=C(C)N=c2sc(=Cc3cc(Cl)ccc3O)c(=O)n2C1c1ccc(OC)cc1 (stereo unspecified)
3. CCCCNc1nc(NC(C)(C)C)nc(NC(C)(C)C)n1

2
0
0

----------
- Test system: Schistosoma mansoni
- Assay type: functional
- Parameters: scale not given here
measured_property: Toxicity

The cases that follow already have their Toxicity on record.
1) O=c1cc(NC2CCN(CCCc3ccccc3)CC2)c2cc(Cl)ccc2o1 ... 2
2) Cl.c1ccc2c(NCCCCCCNc3c4c(nc5ccccc35)CCCC4)c3c(nc2c1)CCCC3 ... 4
3) Cc1c(C)n(Cc2ccc(F)cc2)c2ccc(C(=O)NCc3ccco3)cc12 ... 1
4) CCCCCCOC(=O)C1=C(C)NC(=O)NC1c1ccccc1F (stereo not drawn) ... 0
5) CCOC(=O)c1c(NC(=O)c2ccccc2)sc2c(O)c(CN(CC)CC)ccc12 ... 0
6) Cc1ccc(CSCc2ccc(C(=O)NC3CC3)o2)cc1 ... 0
7) CCOC(=O)c1c(C)n(-c2ccccc2)c2ccc(OC(=O)c3cc(OC)c(OC)c(OC)c3)cc12 ... 0
8) COc1ccc2c(c1)OC(O)(C(F)(F)C(F)(F)F)CC2=O (stereo not drawn) ... 0
9) Oc1c2c(nc3cc(-c4ccccc4)nn13)CCCC2 ... 0
10) c1ccc2cc3c(Nc4ccc(N5CCOCC5)cc4)ccnc3cc2c1 ... 2

For the 2 compounds below, give their Toxicity values.
1. C[n+]1c2ccccc2nc2ccc(NCCO)cc21
2. Oc1ccc(Cl)cc1CNc1nc2ccccc2[nH]1

1. 0
2. 0

Quick batch: Toxicity for everything below.
1. O=C(NCC(c1ccsc1)N1CCCCCC1)c1ccc(C(F)(F)F)cc1 (stereo not drawn)
2. CC1(c2ccccc2)Nc2ccccc2-c2nc3ccccc3n21 (stereo not drawn)
3. OC1CCCCC1C1(NC(=S)Nc2ccccc2)CCCCC1 (stereo not drawn)
4. Br.CCn1c2c(c(=N)c3c1CCC3)CCCC2
5. O=C(Nc1ccc(Cl)cc1C(=O)Nc1ccncc1)c1ccc(Cl)cc1Cl
6. Oc1c(CN2CCN(c3ccccc3F)CC2)cc(Br)c2cccnc12

[0, 0, 0, 0, 0, 0]
